molecular target: Nuclear receptor coactivator 1 (Homo sapiens) (UniProt Q15788); experiment: SRC1 coactivator transcriptional activity inhibitors, primary screen, cell-based, luminescence (AID 588354); settings: HEK293 GAL4-SRC1 luciferase reporter, at 3.6 µM, active compounds read high;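 further: 0% = DMSO treated cells and 100% = gossypol at 36 µM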
Sequence (Q15788 whole entry, looked up, the tested form may be a part): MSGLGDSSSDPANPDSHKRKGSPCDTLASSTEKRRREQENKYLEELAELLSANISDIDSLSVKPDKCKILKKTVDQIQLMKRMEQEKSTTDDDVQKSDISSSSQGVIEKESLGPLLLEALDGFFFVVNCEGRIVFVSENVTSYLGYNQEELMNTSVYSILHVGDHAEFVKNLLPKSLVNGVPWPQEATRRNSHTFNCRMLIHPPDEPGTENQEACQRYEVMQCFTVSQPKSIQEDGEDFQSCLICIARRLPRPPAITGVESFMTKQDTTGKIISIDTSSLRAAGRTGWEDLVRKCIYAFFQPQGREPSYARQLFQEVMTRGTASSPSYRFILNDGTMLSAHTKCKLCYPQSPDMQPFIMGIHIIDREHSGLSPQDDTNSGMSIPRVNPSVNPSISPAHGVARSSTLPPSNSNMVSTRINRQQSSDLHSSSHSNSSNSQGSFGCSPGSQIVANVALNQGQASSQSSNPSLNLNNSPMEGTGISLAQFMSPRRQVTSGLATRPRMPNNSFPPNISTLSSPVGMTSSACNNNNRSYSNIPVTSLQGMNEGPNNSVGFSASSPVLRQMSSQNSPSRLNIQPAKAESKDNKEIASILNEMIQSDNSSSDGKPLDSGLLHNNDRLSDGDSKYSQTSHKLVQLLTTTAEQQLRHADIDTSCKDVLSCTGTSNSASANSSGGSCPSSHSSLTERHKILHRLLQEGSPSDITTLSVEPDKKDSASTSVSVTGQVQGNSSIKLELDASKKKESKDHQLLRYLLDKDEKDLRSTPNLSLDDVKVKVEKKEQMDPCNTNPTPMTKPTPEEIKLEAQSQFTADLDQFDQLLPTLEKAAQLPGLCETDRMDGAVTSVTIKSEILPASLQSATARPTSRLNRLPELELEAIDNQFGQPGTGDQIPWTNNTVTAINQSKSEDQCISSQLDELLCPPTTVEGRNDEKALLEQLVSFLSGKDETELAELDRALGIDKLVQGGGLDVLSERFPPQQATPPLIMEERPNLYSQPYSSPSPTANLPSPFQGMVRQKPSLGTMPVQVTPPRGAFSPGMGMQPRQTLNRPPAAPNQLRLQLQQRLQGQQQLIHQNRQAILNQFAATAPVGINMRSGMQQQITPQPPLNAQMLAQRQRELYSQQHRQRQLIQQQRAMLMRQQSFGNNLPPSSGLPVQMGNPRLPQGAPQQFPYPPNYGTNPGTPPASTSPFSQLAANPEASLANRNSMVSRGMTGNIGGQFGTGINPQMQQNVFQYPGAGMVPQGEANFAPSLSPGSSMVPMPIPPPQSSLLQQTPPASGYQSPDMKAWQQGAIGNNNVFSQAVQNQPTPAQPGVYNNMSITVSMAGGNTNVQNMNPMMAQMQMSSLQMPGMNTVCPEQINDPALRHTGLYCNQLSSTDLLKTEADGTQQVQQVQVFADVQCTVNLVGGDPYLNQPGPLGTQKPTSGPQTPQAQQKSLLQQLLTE
Screen size: about 360,000 compounds; about 430 (0.12%) were called active. For the sample, actives were picked, then their nearest neighbours and some compounds at random.
Reported endpoint: inhibition (%)
Numeric answer only, unit % assumed.

Would you please look over these solved cases?
{"columns": ["Compound", "Reported endpoint", "Quantitative readout"],
 "data": [
  ["COCOc1cc(O)c(C(=O)/C=C/c2ccc(OCOC)c(OCOC)c2)c(OCOC)c1", "inhibition", -3.45],
  ["CCn1nc(C)c(CNC(=O)C2CCC(=O)N(Cc3cccc(F)c3)C2)c1C (stereo unspecified)", "inhibition", -37.5],
  ["CCn1nc(NC(=O)c2ccco2)c2cc3ccc(C)cc3nc21", "inhibition", 5.64],
  ["CN1CCN(C(=O)C(=O)c2cn(CC(=O)N3CCCC3)c3ccccc23)CC1", "inhibition", -22.3],
  ["Cc1ccsc1C(=O)OCC(=O)c1cc(C)n(CC2CCCO2)c1C (stereo unspecified)", "inhibition", 82.3],
  ["CC1(C)CC(CNCCC(c2ccc(F)cc2)c2ccco2)CCO1 (stereo unspecified)", "inhibition", 12.7]
]}

# context switch: different compound, same inhibition
INPUT: Which inhibition value is on record for CN(Cc1cccs1)C(=O)CN1C(=O)c2ccccc2S1(=O)=O ?
OUTPUT: -19.1

====

target: Nuclear receptor coactivator 1 (Homo sapiens); assay: SRC1 coactivator transcriptional activity inhibitors, primary screen, cell-based, luminescence (AID 588354); conditions: HEK293 GAL4-SRC1 luciferase reporter, at 3.6 µM;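 further: 0% = DMSO treated cells and 100% = gossypol at 36 µM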
The whole screen tested about 360,000 compounds, of which about 430 (0.12%) were called active.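 The calls were made as follows: active = inhibition above the campaign mean plus 3 SD, with each screening campaign given its own cutoff (cut at about 60% in these data); inactive = the rest.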 The list comes from a sample in which actives are over-represented; it also holds close analogues and randomly drawn compounds.
Pick one: T for active, F for inactive

Solved entries (count: 4):
{"columns": ["Molecule", "Group"],
 "data": [
  ["COc1ccc(C(=O)Nc2ccccc2C(=O)N/N=C/c2ccc(O)c(OC)c2)cc1", "T"],
  ["CCOc1cc(/C=N/NC(=O)c2c(C)nc3ccc(Cl)cn23)ccc1O", "F"],
  ["COc1cccc(OCc2cc(/C=N/NC(=O)c3nc(Cl)c(Cl)c(N)c3Cl)ccc2OC)c1", "F"],
  ["O=C(CCc1ccc(S(=O)(=O)N2CCOCC2)cc1)Nc1ccc2ccccc2c1", "F"]
]}

INPUT: What did the test return for O=C(NN=Cc1ccccc1O)NN=Cc1ccccc1O ?
OUTPUT: T

INPUT: Then COc1ccc2c(c1)N(C)/C(=C1/SC(=S)N(NC(C)=O)C1=O)S2 ?
OUTPUT: F

INPUT: One more molecule: COCCCC1CCN(C(=O)C2CCC(=O)N(C3CCCCCC3)C2)CC1 (stereo not given)
OUTPUT: F

INPUT: Entry to check: CCC(C)C(=O)Nc1cc([N+](=O)[O-])ccc1Cl (stereo not given)
OUTPUT: F

INPUT: Repeat for the following molecule: CS(=O)(=O)Nc1ccccc1C(=O)OCC(=O)NC1CC1
OUTPUT: F

INPUT: Ok, now COc1ccc(NC(=O)CSc2nc(NS(=O)(=O)c3ccc(C)cc3)cc(=O)[nH]2)cc1
OUTPUT: F
